Assayed system: T1, purified human CD117 ectodomain (R&D Systems #332-SR) (human, UniProt P10721 26-524)
T1 construct: extracellular domain; Bought protein; also called c-kit; purified recombinant human CD117 ectodomain
T1 sequence (P10721 26-524): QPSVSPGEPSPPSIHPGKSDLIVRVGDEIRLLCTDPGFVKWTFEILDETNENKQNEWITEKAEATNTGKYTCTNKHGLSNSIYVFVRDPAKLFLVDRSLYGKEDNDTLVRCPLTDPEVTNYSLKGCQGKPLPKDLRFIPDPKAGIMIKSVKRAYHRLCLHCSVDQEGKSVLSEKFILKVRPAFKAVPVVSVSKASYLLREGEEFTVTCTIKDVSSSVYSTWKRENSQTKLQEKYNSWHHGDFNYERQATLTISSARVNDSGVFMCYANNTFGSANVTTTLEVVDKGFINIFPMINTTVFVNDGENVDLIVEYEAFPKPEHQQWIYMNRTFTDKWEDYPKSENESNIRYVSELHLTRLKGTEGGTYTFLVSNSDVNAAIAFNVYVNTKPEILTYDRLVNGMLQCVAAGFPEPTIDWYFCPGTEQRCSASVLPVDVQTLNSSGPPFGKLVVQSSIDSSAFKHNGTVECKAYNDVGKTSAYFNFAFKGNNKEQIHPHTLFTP
Run description: BLI, purified IgG on sensor, soluble ectodomain; apparent monovalent
Entries and their kon
Answer with a number only, understood to be in M⁻¹ s⁻¹.

Query: Provide kon value for the following binder: HC-2/LC-2 (Ab2) (antibody, IgG1, V domains shown, Purified IgG; also called 002) VH: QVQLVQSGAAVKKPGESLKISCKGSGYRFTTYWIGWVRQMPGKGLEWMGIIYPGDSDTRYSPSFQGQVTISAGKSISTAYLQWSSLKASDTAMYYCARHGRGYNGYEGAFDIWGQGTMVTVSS VL: DIQLTQSPSSLSASVGDRVTITCRASQGIRTDLGWYQQKPGKAPKLLIYDASSLESGVPSRFSGSGSGTDFTLTISSLQPEDFATYYCQQFNSYPLTFGGGTKVEIK
Reply: 370000

Query: Identify measured kon corresponding to HC-25/LC-25 (Ab25) (antibody, IgG1, V domains shown, From rat immunization/hybridoma; purified IgG in BLI; also called 025) VH: QIQLVQSGPELKKPGESVKISCKASGYTFTDYAIHWVKQAPGQGLRWMAWINTETGKPTYADDFKGRFVFSLEASASTAHLQISNLKNEDTATFFCAGGSHWFAYWGQGTLVTVSS VL: SYELIQPPSASVTLENTVSITCSGDELSNKYAHWYQQKPDKTILEVIYNDSERPSGISDRFSGSSSGTTAILTIRDAQAEDEADYYCLSTFSDDDLPIFGGGTKLTVL
Reply: 2.94e+06

Query: Item HC-28/LC-28 (Ab28) (antibody, IgG1, V domains shown, From rat immunization/hybridoma; purified IgG in BLI; also called 028) VH: EVQLQQYGAELGKPGTSVRLSCKVSGYKIRNTYIHWVNQRPGKGLEWIGRIDPANGNTIYAEKFKSKVTLTADTSSNTAYMQLSQLKSDDTALYFCAMNYEGYEDYWGQGVMVTVSS VL: DIQMTQSPSFLSASVGDSVTINCKASQNINKYLNWYQQKLGEAPKRLIHKTNSLQPGFPSRFSGSGSGTDYTLTISSLQPEDVAAYFCFQYNSGFTFGAGTKLELK : provide kon
Reply: 914000

Query: Return value of kon for input HC-7/LC-7 (Ab7) (antibody, IgG1, V domains shown, Purified IgG; also called 007) VH: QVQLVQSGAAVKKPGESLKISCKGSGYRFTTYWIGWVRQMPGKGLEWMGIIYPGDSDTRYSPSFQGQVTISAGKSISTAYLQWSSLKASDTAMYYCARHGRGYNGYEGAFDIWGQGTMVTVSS VL: DIAMTQSPPSLSAFVGDRVTITCRASQGIISSLAWYQQKPGKAPKLLIYDASSLESGVPSRFSGSGSGTDFTLTIRSLQPEDFATYYCQQFNSYPLTFGGGTKLEIK , no commentary.
Reply: 275000

Attention now turns to another entry.
Query: Identify measured kon corresponding to HC-8/LC-8 (Ab8) (antibody, IgG1, V domains shown, Purified IgG; also called 008) VH: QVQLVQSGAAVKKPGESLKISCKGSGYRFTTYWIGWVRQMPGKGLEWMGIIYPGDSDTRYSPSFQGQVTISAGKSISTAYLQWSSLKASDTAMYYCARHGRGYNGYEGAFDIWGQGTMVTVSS VL: DIQMTQSPSSLSASVGDRVTITCRASQGISSALAWYQQKAGKAPKVLISDASSLESGVPSRFSGSGSGTDFTLSISSLQPEDFATYYCQQFNGYPLTFGGGTKVDIK
Reply: 290000
